target: Athe_0597 (Caldicellulosiruptor bescii, UniProt A0ABY1SBW7); construct: gene SAMN05216240_2513; IMAC purified after 68 °C heat treatment; assay: differential scanning calorimetry; format: binding; conditions: 5 mM sugar, 2 mg/mL protein, 50 mM HEPES, 300 mM NaCl, pH 7.0; 4 °C/min
Sequence (A0ABY1SBW7 entry or part of it): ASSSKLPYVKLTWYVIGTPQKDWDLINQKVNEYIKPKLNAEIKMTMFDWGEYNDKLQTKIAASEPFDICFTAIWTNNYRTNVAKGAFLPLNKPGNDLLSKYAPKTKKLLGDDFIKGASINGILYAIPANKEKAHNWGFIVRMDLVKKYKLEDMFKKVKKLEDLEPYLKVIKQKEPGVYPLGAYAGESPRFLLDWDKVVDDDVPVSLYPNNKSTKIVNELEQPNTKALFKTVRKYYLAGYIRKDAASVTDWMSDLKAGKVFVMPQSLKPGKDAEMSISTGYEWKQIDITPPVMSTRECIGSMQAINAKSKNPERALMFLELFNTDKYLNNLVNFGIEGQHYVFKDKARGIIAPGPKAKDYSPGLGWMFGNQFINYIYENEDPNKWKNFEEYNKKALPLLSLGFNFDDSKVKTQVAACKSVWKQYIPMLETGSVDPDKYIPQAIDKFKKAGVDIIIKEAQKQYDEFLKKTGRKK
quantity measured: ΔTm (°C)

compound	test system	unit spec	value observed
OC[C@H]1O[C@@H](O[C@H]2[C@H](O)[C@@H](O)[C@H](O[C@H]3[C@H](O)[C@@H](O)[C@H](O[C@H]4[C@H](O)[C@@H](O)[C@H](O[C@H]5[C@H](O)[C@@H](O)C(O)O[C@@H]5CO)O[C@@H]4CO)O[C@@H]3CO)O[C@@H]2CO)[C@H](O)[C@@H](O)[C@@H]1O (stereo partly shown)	Athe_0597 (Caldicellulosiruptor bescii, UniProt A0ABY1SBW7)	°C	8.72
OC[C@H]1O[C@@H](O[C@H]2[C@H](O)[C@@H](O)[C@H](O[C@H]3[C@H](O)[C@@H](O)C(O)O[C@@H]3CO)O[C@@H]2CO)[C@H](O)[C@@H](O)[C@@H]1O (stereo partly shown)	Athe_0597 (Caldicellulosiruptor bescii, UniProt A0ABY1SBW7)	°C	6.89
OC[C@H]1O[C@@H](O[C@H]2[C@H](O)[C@@H](O)C(O)O[C@@H]2CO)[C@H](O)[C@@H](O)[C@@H]1O (stereo partly shown)	Athe_0597 (Caldicellulosiruptor bescii, UniProt A0ABY1SBW7)	°C	7.57
OC[C@H]1O[C@@H](O[C@H]2[C@H](O)[C@@H](O)[C@H](O[C@H]3[C@H](O)[C@@H](O)[C@H](O[C@H]4[C@H](O)[C@@H](O)C(O)O[C@@H]4CO)O[C@@H]3CO)O[C@@H]2CO)[C@H](O)[C@@H](O)[C@@H]1O (stereo partly shown)	Athe_0597 (Caldicellulosiruptor bescii, UniProt A0ABY1SBW7)	°C	9.30

---

target: Athe_0597 (Caldicellulosiruptor bescii, UniProt A0ABY1SBW7); construct: gene SAMN05216240_2513; IMAC purified after 68 °C heat treatment; assay: isothermal titration calorimetry; assay type: binding; conditions: 25 °C; 50 mM HEPES, 300 mM NaCl, pH 7.0 (storage and characterization buffer); single-site model
quantity measured: Kd (µM)

compound	test system	quantity measured	value observed
OC[C@H]1O[C@@H](O[C@H]2[C@H](O)[C@@H](O)[C@H](O[C@H]3[C@H](O)[C@@H](O)[C@H](O[C@H]4[C@H](O)[C@@H](O)[C@H](O[C@H]5[C@H](O)[C@@H](O)C(O)O[C@@H]5CO)O[C@@H]4CO)O[C@@H]3CO)O[C@@H]2CO)[C@H](O)[C@@H](O)[C@@H]1O (stereo partly shown)	Athe_0597 (Caldicellulosiruptor bescii, UniProt A0ABY1SBW7)	Kd	1.18

P: OC[C@H]1O[C@@H](O[C@H]2[C@H](O)[C@@H](O)[C@H](O[C@H]3[C@H](O)[C@@H](O)[C@H](O[C@H]4[C@H](O)[C@@H](O)C(O)O[C@@H]4CO)O[C@@H]3CO)O[C@@H]2CO)[C@H](O)[C@@H](O)[C@@H]1O (stereo partly shown)
Q: OC[C@H]1O[C@@H](O[C@H]2[C@H](O)[C@@H](O)C(O)O[C@@H]2CO)[C@H](O)[C@@H](O)[C@@H]1O (stereo partly shown)
R: OC[C@H]1O[C@@H](O[C@H]2[C@H](O)[C@@H](O)[C@H](O[C@H]3[C@H](O)[C@@H](O)C(O)O[C@@H]3CO)O[C@@H]2CO)[C@H](O)[C@@H](O)[C@@H]1O (stereo partly shown)
INPUT: Order field: Kd | Direction: descending (largest first) Answer format: list of labels, ordered as asked.
OUTPUT: P, R, Q
(P: 1.97 µM, R: 0.942 µM, Q: 0.228 µM)

Cited source for all entries: paper PMC12838199
